- STUDY TARGET: soluble TPO-R (UniProt P40238)
- Sequence (P40238 26-491): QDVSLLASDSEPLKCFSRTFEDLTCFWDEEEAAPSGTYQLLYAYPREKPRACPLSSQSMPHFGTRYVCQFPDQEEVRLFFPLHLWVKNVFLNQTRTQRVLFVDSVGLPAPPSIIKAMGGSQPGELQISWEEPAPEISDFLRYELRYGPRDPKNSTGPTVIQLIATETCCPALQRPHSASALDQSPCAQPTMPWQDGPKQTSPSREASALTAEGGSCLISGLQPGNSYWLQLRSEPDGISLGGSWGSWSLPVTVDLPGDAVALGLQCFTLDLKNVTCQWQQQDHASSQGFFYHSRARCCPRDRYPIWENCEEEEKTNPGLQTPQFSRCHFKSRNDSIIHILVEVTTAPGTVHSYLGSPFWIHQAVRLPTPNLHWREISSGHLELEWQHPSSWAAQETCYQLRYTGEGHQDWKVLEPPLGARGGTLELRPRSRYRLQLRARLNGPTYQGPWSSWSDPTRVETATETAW
- RUN DESCRIPTION: competition ELISA vs MBP-TPO156
Bridges are numbered along the chain shown (N, C = ends). Where no end group is shown, it is not given here. [ ]: non-standard residue; d: D form. DiPhAla = diphenylalanine (source's own name); Phe(4-Cl) = N[C@@H](Cc1ccc(Cl)cc1)C(=O)O
Kindly state IC50 for each of the entries shown.

INSERT INTO measurements (binder, property_label, recorded_measurement) VALUES
  ('CADGPTLREWIS[Phe(4-Cl)]C (disulfide 1-14 (inferred); not fully specified) [SEQ ID NO:12 cyclized, F - (p-Cl-Phe)]', 'IC50', '< 500 nM'),
  ('CADGPTLREWIS[DiPhAla]C (disulfide 1-14 (inferred); not fully specified) [SEQ ID NO:12 cyclized, F - (DiPh - Ala)]', 'IC50', '< 500 nM');

Query :: Reported IC50, binder ADGPTLREWISFC (also: further groups not given here) [[drawing CHEM-US-00027] / [drawing CHEM-US-00028] (SEQ ID NO:173)] : ____
Result :: < 500 nM
